All values here come from patent US20080261994A1.

target: aggrecanase-1 (Homo sapiens); assay: Aggrecanase-1 inhibitory action (Particle Assay, GAG release from aggrecan-containing polyacrylamide particles); format: biochemical; conditions: aggrecanase-1 inhibitory action; read-out: IC50 AG1 (Experimental Example 1)
Sequence (O75173 213-837, species assumed): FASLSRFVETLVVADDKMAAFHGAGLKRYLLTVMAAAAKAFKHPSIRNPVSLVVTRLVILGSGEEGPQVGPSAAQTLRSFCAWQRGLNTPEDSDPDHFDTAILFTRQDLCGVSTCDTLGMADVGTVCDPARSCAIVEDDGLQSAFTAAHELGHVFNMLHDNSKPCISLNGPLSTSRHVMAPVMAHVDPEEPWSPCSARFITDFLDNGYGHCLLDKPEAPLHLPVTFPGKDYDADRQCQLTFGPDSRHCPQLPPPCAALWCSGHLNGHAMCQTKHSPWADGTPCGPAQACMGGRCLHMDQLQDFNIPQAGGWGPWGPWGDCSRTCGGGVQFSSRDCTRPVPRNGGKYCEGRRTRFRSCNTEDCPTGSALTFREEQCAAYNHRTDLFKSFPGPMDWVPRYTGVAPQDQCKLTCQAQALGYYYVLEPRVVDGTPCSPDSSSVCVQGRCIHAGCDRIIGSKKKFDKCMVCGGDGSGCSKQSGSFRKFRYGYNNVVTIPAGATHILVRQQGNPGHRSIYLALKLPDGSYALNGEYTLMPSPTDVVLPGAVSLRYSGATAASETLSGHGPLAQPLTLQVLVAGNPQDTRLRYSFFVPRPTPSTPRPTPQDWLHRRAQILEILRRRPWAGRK
Answer each item with its documented IC50.

Which IC50 is listed for Cc1cc(-c2ccc(S(=O)(=O)N[C@@]3(C(=O)O)C[C@@H]3c3ccccc3)s2)no1 ?
< 1000 nM

Please give the result for CC(F)(F)c1cc(-c2ccc(S(=O)(=O)N[C@@]3(C(=O)O)C[C@]3(C)c3ccccc3)s2)no1 too.
< 100 nM

Please give the result for O=C(O)[C@]1(NS(=O)(=O)c2ccc(-c3cc(C(F)F)on3)s2)C[C@@H]1c1ccccc1 too.
< 100 nM

Please give the result for CN1CCN(C(=O)Cc2ccccc2C2CC2(NS(=O)(=O)c2ccc(-c3ccc(Cl)cc3)s2)C(=O)O)CC1 (stereo not shown) too.
< 1000 nM

###

molecular target: Recombinant Human MMP-13 (Homo sapiens, UniProt P45452); construct: purchased R&D systems 511-MM; assay: MMP-13 inhibitory activity (MMP-13 specific fluorescent substrate with quencher); format: biochemical; settings: Experimental Example 3; read-out: IC50 MMP13
pIC50: −log10 of the molar value.
Outcome measure: pIC50

Which pIC50 is listed for CCOC(=O)c1cccc(-c2ccc(S(=O)(=O)N[C@@]3(C(=O)O)C[C@]3(C)c3ccccc3)s2)c1 ?
≤ 5.00

Please give the result for CC1[C@@H](c2ccccc2)[C@@]1(NS(=O)(=O)c1ccc(-c2cc(C(F)(F)F)on2)s1)C(=O)O (stereo partly shown) too.
> 7.00

Please give the result for Cc1nc(-c2ccc(S(=O)(=O)N[C@@]3(C(=O)O)C(C)[C@@H]3c3ccccc3)s2)no1 (stereo partly shown) too.
≤ 6.00

Please give the result for O=C(NC1CC1)OCC1(c2ccccc2)CC1(NS(=O)(=O)c1ccc(-c2cc(C(F)(F)F)on2)s1)C(=O)O (stereo not shown) too.
> 6.00

###

biological target: MMP-1 (Homo sapiens, UniProt P03956); assay: MMP-1 inhibitory action (Type I collagen Activity Measurement kit, FITC-labeled collagen type I); assay type: biochemical; conditions: Experimental Example 2; read-out: IC50 MMP1
Sequence (P03956 100-469, species assumed): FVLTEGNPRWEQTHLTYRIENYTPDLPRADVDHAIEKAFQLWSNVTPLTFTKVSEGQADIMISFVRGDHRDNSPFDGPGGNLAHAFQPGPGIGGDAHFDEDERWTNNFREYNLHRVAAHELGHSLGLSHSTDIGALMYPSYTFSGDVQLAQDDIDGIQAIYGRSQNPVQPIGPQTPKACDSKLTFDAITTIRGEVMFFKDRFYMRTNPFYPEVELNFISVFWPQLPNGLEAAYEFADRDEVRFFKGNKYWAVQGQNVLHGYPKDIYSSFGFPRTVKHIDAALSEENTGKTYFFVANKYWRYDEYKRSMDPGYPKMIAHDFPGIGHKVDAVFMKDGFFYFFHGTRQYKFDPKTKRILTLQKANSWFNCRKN
Outcome measure: IC50

Reported IC50 for MMP-1 (Homo sapiens, UniProt P03956), given C[C@]1(c2ccccc2)C[C@@]1(NS(=O)(=O)c1ccc(-c2ccc(O)cc2)s1)C(=O)O ?
≥ 1 µM

Please give the result for O=C(O)[C@@]1(NS(=O)(=O)c2ccc(-c3cc(C(F)(F)F)on3)s2)C[C@H]1c1ccc(CCO)cc1 too.
≥ 1 µM

Please give the result for C[C@]1(c2ccccc2)C[C@@]1(NS(=O)(=O)c1ccc(-c2ccc(Cl)c(CO)c2)s1)C(=O)O too.
≥ 1 µM

Please give the result for O=C(O)C1(NS(=O)(=O)c2ccc(-c3ccc(Cl)cc3)s2)CC1(COCc1ccccc1)c1ccccc1 (centres unmarked) too.
< 1 µM

Please give the result for CC1[C@H](c2ccccc2)[C@]1(NS(=O)(=O)c1ccc(-c2ccc3nsnc3c2)s1)C(=O)O (some centres unmarked) too.
≥ 1 µM

Please give the result for CC1[C@H](c2ccccc2)[C@]1(NS(=O)(=O)c1ccc(-c2cc(C(F)(F)F)on2)s1)C(N)=O (some centres unmarked) too.
≥ 10 µM

Please give the result for CC1[C@H](c2ccccc2)[C@]1(NS(=O)(=O)N1CCCN(c2ccc(Cl)cn2)CC1)C(=O)O (some centres unmarked) too.
≥ 10 µM

Please give the result for CC1[C@H](c2ccccc2)[C@]1(NS(=O)(=O)N1CCN(C(=O)OCc2ccccc2)CC1)C(=O)O (some centres unmarked) too.
≥ 1 µM

Please give the result for O=C1COCCN1CC1(c2ccccc2)CC1(NS(=O)(=O)c1ccc(-c2ccc(Cl)cc2)s1)C(=O)O (centres unmarked) too.
≥ 1 µM

Please give the result for Cc1cnn(-c2ccc(S(=O)(=O)N[C@@]3(C(=O)O)C(C)[C@@H]3c3ccccc3)s2)c1 (some centres unmarked) too.
< 1 µM

Please give the result for C[C@]1(c2cccc(Cl)c2)C[C@@]1(NS(=O)(=O)c1ccc(-c2cc(C(F)(F)F)on2)s1)C(=O)O too.
< 1 µM

Please give the result for CC1[C@H](c2ccccc2)[C@]1(NS(=O)(=O)c1ccc(-c2ccc3[nH]c(=O)sc3c2)s1)C(=O)O (some centres unmarked) too.
≥ 1 µM

Please give the result for CCOC(=O)NCC1(c2ccccc2)CC1(NS(=O)(=O)c1ccc(-c2ccc(Cl)cc2)s1)C(=O)O (centres unmarked) too.
≥ 10 µM

Please give the result for CC(=O)c1ccc(-c2ccc(S(=O)(=O)N[C@@]3(C(=O)O)C[C@]3(C)c3ccccc3)s2)cc1 too.
≥ 1 µM
